The compounds listed here are annotated with their TGI.
- System: DLD-1 colon
- method.description: NCI tumour cell line growth inhibition, 48 h
metric: TGI

[[record]]
compound = "Nc1ncnc2c1ncn2C1OC(CO)C(O)C1O (stereo not drawn)"
metric = "TGI"
value_observed = "> 450 µM"

[[record]]
compound = "CC(=O)OCC1OC(n2c(-c3ccc(N)cc3)cc(-c3ccco3)c(C#N)c2=O)C(OC(C)=O)C(OC(C)=O)C1OC(C)=O (stereo not drawn)"
metric = "TGI"
value_observed = "> 50 µM"

[[record]]
compound = "O=C1CCCn2c3ccccc3c3ccnc1c32"
metric = "TGI"
value_observed = "> 100 µM"

[[record]]
compound = "O=C1/C=C(/c2ccc(O)cc2)[C@H](O)Cc2ccc(OC3OC(CO)C(O)C(O)C3O)cc2O1 (stereo partly drawn) (tested in a mixture with another compound)"
metric = "TGI"
value_observed = "> 100 µM"

[[record]]
compound = "COC(=O)c1nc(N)[nH]c(=O)c1-c1ccc(Cl)cc1"
metric = "TGI"
value_observed = "> 100 µM"

[[record]]
compound = "COC1=C(C(=O)OC(C)(C)C)C23CCCCC2(C(C(=O)OC(C)(C)C)=C(OC)C3C(=O)OC(C)(C)C)C1C(=O)OC(C)(C)C (stereo not drawn)"
metric = "TGI"
value_observed = "> 100 µM"

[[record]]
compound = "COc1cc(C=C2C(=O)OC(C)(C)OC2=O)cc(OC)c1OC"
metric = "TGI"
value_observed = "> 100 µM"

[[record]]
compound = "CCCCCCCCOCC(O)COC (stereo not drawn)"
metric = "TGI"
value_observed = "> 100 µM"

[[record]]
compound = "COc1ccc(/C=N\\N2C(=O)Cc3ccccc32)cc1"
metric = "TGI"
value_observed = "> 100 µM"

[[record]]
compound = "NNC(=S)N/N=C(\\c1nc2ccc(Cl)cc2[nH]c1=O)C(O)c1ccc(Cl)cc1Cl (stereo not drawn)"
metric = "TGI"
value_observed = "> 100 µM"

[[record]]
compound = "CC1=NN(C(=O)CC(=O)Nc2ccccc2)C(=O)C1N=Nc1ccc(S(N)(=O)=O)cc1 (stereo not drawn)"
metric = "TGI"
value_observed = "> 100 µM"

[[record]]
compound = "CCOC(=O)C(=C=Cc1cccs1)C(=O)c1ccccc1"
metric = "TGI"
value_observed = "27.8 µM"

[[record]]
compound = "CSCC[C@@H](NC(=O)[C@H](CC(C)C)NC(=O)C(Cc1cnc[nH]1)NC(=O)CNC(=O)[C@@H](NC(=O)[C@H](C)NC(=O)[C@H](Cc1cn(C=O)c2ccccc12)NC(=O)[C@H](CCC(N)=O)NC(=O)[C@@H](N)CC(N)=O)C(C)C)C(N)=O (stereo partly drawn)"
metric = "TGI"
value_observed = "> 100 µM"


====

- Tested on: OVCAR-3 ovarian
- method.description: NCI tumour cell line growth inhibition, 48 h
metric: TGI (µM)

[[record]]
compound = "CN1CCN(c2nc(NCCNc3ccnc4cc(Cl)ccc34)c3ccccc3n2)CC1"
unit_symbol = "µM"
bound_type = "="
value_observed = 7.44

[[record]]
compound = "C/C(=C/CC[C@](C)(OC1OC(CO)C(O)C(O)C1OC1OC(C)C(O)C(O)C1O)[C@H]1CC[C@]2(C)[C@@H]1CC[C@@H]1[C@@]3(C)CC[C@H](O)C(C)(C)[C@@H]3C[C@H](O)[C@]12C)CO (some centres undefined)"
unit_symbol = "µM"
bound_type = ">"
value_observed = 100

[[record]]
compound = "COc1cc2c(cc1OC)[C@@H]1[C@H](C2=O)c2ccc([N+](=O)[O-])cc2C(=O)N1CCCBr"
unit_symbol = "µM"
bound_type = "="
value_observed = 0.748

[[record]]
compound = "O=c1[nH]c(=O)n(COCCO)cc1-c1ccccc1"
unit_symbol = "µM"
bound_type = ">"
value_observed = 100


The reported numbers originate from PubChem BioAssay (NCI).
